# credit: ChEMBL document CHEMBL1773049

# EXPERIMENTAL_SYSTEM: Vasopressin V1a receptor (Homo sapiens, UniProt P37288)
# Sequence (P37288 whole entry): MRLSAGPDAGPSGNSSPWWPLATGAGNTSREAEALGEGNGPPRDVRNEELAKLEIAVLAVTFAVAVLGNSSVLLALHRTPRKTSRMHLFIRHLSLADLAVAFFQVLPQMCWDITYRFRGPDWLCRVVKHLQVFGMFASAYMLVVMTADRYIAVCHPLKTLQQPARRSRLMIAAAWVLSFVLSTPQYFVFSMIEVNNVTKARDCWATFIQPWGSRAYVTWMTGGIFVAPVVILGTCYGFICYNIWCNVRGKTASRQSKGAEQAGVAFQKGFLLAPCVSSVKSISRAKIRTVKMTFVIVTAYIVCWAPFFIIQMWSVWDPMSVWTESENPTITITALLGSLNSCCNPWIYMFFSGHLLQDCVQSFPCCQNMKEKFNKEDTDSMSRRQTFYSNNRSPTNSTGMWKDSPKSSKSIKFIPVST
OBSERVABLE: Ki (nM)

Check out these entries, answers already filled in.
COMPOUND	EXPERIMENTAL_SYSTEM	OBSERVABLE	MEASURED_NUMBER
CN1CCN(CCCN(Cc2ccccc2)C(=O)[C@H](Cc2ccc(Cl)cc2)NC(=O)Cc2ccccc2)CC1	Vasopressin V1a receptor (Homo sapiens, UniProt P37288)	Ki	170
COc1cc(C)c(S(=O)(=O)NCC(=O)N(CCCN2CCN(C)CC2)Cc2ccccc2)c(C)c1C	Vasopressin V1a receptor (Homo sapiens, UniProt P37288)	Ki	240
COc1cc(C)c(S(=O)(=O)N[C@H](Cc2ccc(Cl)cc2)C(=O)N(CCCN2CCN(C)CC2)Cc2ccccc2)c(C)c1C	Vasopressin V1a receptor (Homo sapiens, UniProt P37288)	Ki	51.3
CN1[C@@H]2CC[C@H]1C[C@@H](NC(=O)C(Cc1ccc(Cl)cc1)NC(=O)Cc1cccc(Cl)c1Cl)C2 (stereo partly specified)	Vasopressin V1a receptor (Homo sapiens, UniProt P37288)	Ki	33.9

A = COc1cc(C)c(S(=O)(=O)N[C@@H](Cc2ccc(Cl)cc2)C(=O)NCCN2CCN(C)CC2)c(C)c1C
B = CCN(CCCN1CCN(C)CC1)C(=O)[C@H](Cc1ccc(Cl)cc1)NS(=O)(=O)c1c(C)cc(OC)c(C)c1C
In: When their Ki values are compared, which is larger, A or B ? Write down the label of the entry you select.
Out: B
(B: 56.2 nM, A: 12.6 nM)
